# Measurement target: Heat shock protein HSP 90-alpha (Homo sapiens, UniProt P07900)
pKd: −log10 of the molar value.
Value type: pKd

# get_value(readout='pKd', item= CC(C)NCCCn1c(Sc2cc(Cl)cc(Cl)c2)nc2c(N)ncnc21 )
< 3.60

----------
# Protocol summary: Permeability of compound at pH 7.4
# Assay type: ADME
# Condition description: not told, read-out: permeability
Value type: Papp (nm/s)
Please reply with the bare figure in nm/s and do not write the unit itself.

Below are worked cases with known answers.
CCCCC#Cc1ccc(NC2CCN(C(C)=O)CC2)c(C(N)=O)c1    946
CC(C)c1ccc(-c2ccc(N[C@H]3CC[C@H](O)CC3)c(C(N)=O)c2)cc1    992

# get_value(readout='Papp', item= CCCCC#Cc1ccc(N[C@H]2CC[C@H](O)CC2)c(C(N)=O)c1 )
979

----------
# Protocol summary: Cmax in Sprague-Dawley rat at 40 mg/kg, po measured after 24 hrs by LC-MS/MS analysis
# Format: ADME, organism-based
# Parameters: time 24 hrs, dose 40 mg/kg, route po
# Condition description: in vivo
Value type: Cmax

# get_value(readout='Cmax', item= CCCCC#Cc1ccc(N[C@H]2CC[C@H](O)CC2)c(C(N)=O)c1 )
600 ng/mL

----------
# Protocol summary: Metabolic stability in human microsomes assessed as half life in presence of NADPH at 10 uM measured after 120 mins by LC-MS/MS analysis
# Assay type: ADME, Microsome
Listed here are compounds together with their documented half-life at 10 µM.
Please reply with the bare figure in h and do not write the unit itself.

CCCCC#Cc1ccc(N[C@H]2CC[C@H](O)CC2)c(C(N)=O)c1    5.78

Kindly consider the entry below.
# get_value(readout='half-life at 10 µM', item= CC(C)c1ccc(-c2ccc(N[C@H]3CC[C@H](O)CC3)c(C(N)=O)c2)cc1 )
4.28

----------
Listed here are molecules together with their documented IC50.
# Measurement target: Endoplasmin (Canis lupus familiaris, UniProt P41148)
# Sequence (P41148 whole entry): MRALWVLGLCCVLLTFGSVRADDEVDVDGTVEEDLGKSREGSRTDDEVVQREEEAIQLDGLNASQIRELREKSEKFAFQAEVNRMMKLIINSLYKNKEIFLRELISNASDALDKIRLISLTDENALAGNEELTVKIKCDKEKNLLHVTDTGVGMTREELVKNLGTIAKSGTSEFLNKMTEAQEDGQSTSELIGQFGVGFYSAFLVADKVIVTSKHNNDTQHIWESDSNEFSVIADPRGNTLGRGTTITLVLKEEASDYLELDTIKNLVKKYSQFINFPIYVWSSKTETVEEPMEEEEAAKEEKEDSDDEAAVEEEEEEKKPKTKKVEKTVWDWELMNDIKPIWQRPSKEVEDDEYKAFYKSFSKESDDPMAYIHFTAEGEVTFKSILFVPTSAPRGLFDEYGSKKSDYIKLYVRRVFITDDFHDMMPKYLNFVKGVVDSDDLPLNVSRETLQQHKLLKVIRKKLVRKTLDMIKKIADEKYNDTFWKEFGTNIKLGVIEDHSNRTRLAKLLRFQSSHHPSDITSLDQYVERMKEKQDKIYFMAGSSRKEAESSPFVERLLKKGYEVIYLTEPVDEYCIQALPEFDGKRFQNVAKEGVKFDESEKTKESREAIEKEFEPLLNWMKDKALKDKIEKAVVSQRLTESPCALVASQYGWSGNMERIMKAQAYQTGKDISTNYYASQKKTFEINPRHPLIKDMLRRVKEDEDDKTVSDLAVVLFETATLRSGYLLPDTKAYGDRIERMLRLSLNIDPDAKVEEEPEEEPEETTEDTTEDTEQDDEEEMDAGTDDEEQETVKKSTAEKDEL
Please reply with the bare figure in µM and do not write the unit itself.

CCCCC#Cc1ccc(NCCNC(C)=O)c(C(N)=O)c1    2.02
CC(C)(C)C#Cc1ccc(N[C@H]2CC[C@H](O)CC2)c(C(N)=O)c1    0.325
CCCCC#Cc1ccc(NC2CCCNC2)c(C(N)=O)c1 (stereo unspecified)    0.627
CCCCC#Cc1ccc(NC2CCN(C(=O)CC3CC3)CC2)c(C(N)=O)c1    0.797
CCCCC#Cc1ccc(NC2CCN(C(=O)CN(C)C)CC2)c(C(N)=O)c1    1.11

# get_value(readout='IC50', item= CCCCC#Cc1ccc(NCCCO)c(C(N)=O)c1 )
2.77

Can you handle CC(C)C#Cc1ccc(N[C@H]2CC[C@H](O)CC2)c(C(N)=O)c1 next?
0.914

Can you handle CCCCC#Cc1ccc(NCCO)c(C(N)=O)c1 next?
6.84

Can you handle CCCCC#Cc1ccc(NCCCOCC)c(C(N)=O)c1 next?
3.31

Can you handle CCCCC#Cc1ccc(NCCOCC)c(C(N)=O)c1 next?
7.54

Can you handle CC(C)c1cc(C(=O)N2Cc3ccc(CN4CCN(C)CC4)cc3C2)c(O)cc1O [ONALESPIB] next?
0.013

----------
# Protocol summary: Tmax in Sprague-Dawley rat at 40 mg/kg, po measured after 24 hrs by LC-MS/MS analysis
# Assay type: ADME, organism-based
# Condition description: in vivo
Value type: Tmax (min)
Please reply with the bare figure in min and do not write the unit itself.

# get_value(readout='Tmax', item= CCCCC#Cc1ccc(N[C@H]2CC[C@H](O)CC2)c(C(N)=O)c1 )
22.8

----------
# Protocol summary: Tmax in Sprague-Dawley rat at 10 mg/kg, iv measured after 24 hrs by LC-MS/MS analysis
# Format: ADME, organism-based
# Condition description: in vivo
Value type: Tmax (min)
Please reply with the bare figure in min and do not write the unit itself.

# get_value(readout='Tmax', item= CCCCC#Cc1ccc(N[C@H]2CC[C@H](O)CC2)c(C(N)=O)c1 )
3

----------
# Protocol summary: Aqueous solubility of compound
# Type: physicochemical
# Condition description: buffer
Listed here are molecules together with their documented solubility.
Please reply with the bare figure in µg/mL and do not write the unit itself.

Below are worked cases with known answers.
CC(C)c1ccc(-c2ccc(N[C@H]3CC[C@H](O)CC3)c(C(N)=O)c2)cc1    3.9
CCCCC#Cc1ccc(N[C@H]2CC[C@H](O)CC2)c(C(N)=O)c1    11

Kindly consider the entry below.
# get_value(readout='solubility', item= CCCCC#Cc1ccc(NC2CCN(C(C)=O)CC2)c(C(N)=O)c1 )
16

----------
Quick note: these are log10 of IC50 numbers for system: Endoplasmin (Canis lupus familiaris, UniProt P41148)
Lab note - IC50 converted to log10 from values in nM.

Below are worked cases with known answers.
CCCCC#Cc1ccc(NC2CCCN(C(C)=O)C2)c(C(N)=O)c1 (configuration not stated)    3.31
CCCCC#Cc1ccc(NC2CCOC2)c(C(N)=O)c1 (configuration not stated)    2.49
CCCCC#Cc1ccc(NC2CCN(C(=O)C3CC3)CC2)c(C(N)=O)c1    2.72
CCCCC#Cc1ccc(NCC2CCN(C(C)=O)CC2)c(C(N)=O)c1    3.68
CCCCC#Cc1ccc(NC2CCN(C(=O)CN3CCOCC3)CC2)c(C(N)=O)c1    3.17
CC(C)CC#Cc1ccc(N[C@H]2CC[C@H](O)CC2)c(C(N)=O)c1    2.50

Kindly consider the entry below.
# get_value(readout='log10 of IC50', item= CCCCC#Cc1ccc(N[C@H]2CC[C@H](O)CC2)c(C(N)=O)c1 )
1.78

----------
# Protocol summary: Cmax in Sprague-Dawley rat at 10 mg/kg, iv measured after 24 hrs by LC-MS/MS analysis
# Type: ADME, organism-based
# Set-up: dose 10 mg/kg, time 24 hrs, route iv
# Condition description: in vivo
Value type: Cmax (ng/mL)
Please reply with the bare figure in ng/mL and do not write the unit itself.

# get_value(readout='Cmax', item= CCCCC#Cc1ccc(N[C@H]2CC[C@H](O)CC2)c(C(N)=O)c1 )
2410
